# TARGET OR SYSTEM: CDK6/cyclinD3 (Homo sapiens, UniProt Q00534)
# METHOD: CDKi biochemical assay (TR-FRET, phosphorylation of S780 on RB1 peptide)
# RUN CONDITIONS: CDK6/cyclinD3 10 pM, 1 mM ATP, 60 min at 25° C.
pIC50: −log10 of the molar value.
RECORDED METRIC: pIC50

                                    compound                          target_or_system  inequality_operator  test_value
 0  O=C1N([C@@H]2CCC[C@@H](O)C2)c2nc(Nc3c[nH]nc3OC3CC(F)(F)C3)ncc2C12CC2  CDK6/cyclinD3 (Homo sapiens, UniProt Q00534)                    ≤        5.00
 1  O=C1N([C@@H]2CCC[C@@H](O)C2)c2nc(Nc3cnn4c3CNCC4)ncc2C12CC2  CDK6/cyclinD3 (Homo sapiens, UniProt Q00534)                    ≤        5.00
 2  O=C1N([C@@H]2CCC[C@@H](O)C2)c2nc(Nc3c[nH]nc3OC3CN(CC(F)(F)F)C3)ncc2C12CC2  CDK6/cyclinD3 (Homo sapiens, UniProt Q00534)                    ≤        5.00
 3  Cn1cc(Nc2ncc3c(n2)N([C@@H]2CCC[C@@H](O)C2)C(=O)C32CC2)cn1  CDK6/cyclinD3 (Homo sapiens, UniProt Q00534)                    =        6.22
 4  O=C1N([C@@H]2CCC[C@@H](O)C2)c2nc(Nc3c[nH]nc3C3CC3(F)F)ncc2C12CC2 (single isomer, unassigned)  CDK6/cyclinD3 (Homo sapiens, UniProt Q00534)                    =        5.32
 5  O=C1N([C@@H]2CCC[C@@H](O)C2)c2nc(Nc3c[nH]nc3OCC3CC4(COC4)C3)ncc2C12CC2  CDK6/cyclinD3 (Homo sapiens, UniProt Q00534)                    ≤        5.00
 6  CO[C@H]1C[C@H](Oc2n[nH]cc2Nc2ncc3c(n2)N([C@@H]2CCC[C@@H](O)C2)C(=O)C32CC2)C1  CDK6/cyclinD3 (Homo sapiens, UniProt Q00534)                    ≤        5.00
 7  N#CC1(COc2n[nH]cc2Nc2ncc3c(n2)N([C@@H]2CCC[C@@H](O)C2)C(=O)C32CC2)CC1  CDK6/cyclinD3 (Homo sapiens, UniProt Q00534)                    ≤        5.00
 8  O=C1N([C@@H]2CCC[C@@H](O)C2)c2nc(Nc3c[nH]nc3C(F)F)ncc2C12CC2  CDK6/cyclinD3 (Homo sapiens, UniProt Q00534)                    =        5.42
 9  O=C1N([C@@H]2CCC[C@@H](O)C2)c2nc(Nc3c[nH]nc3O[C@H]3COC[C@@H]3F)ncc2C12CC2  CDK6/cyclinD3 (Homo sapiens, UniProt Q00534)                    ≤        5.00
10  COc1n[nH]cc1Nc1ncc2c(n1)N([C@@H]1CCC[C@@H](O)C1)C(=O)C21CC1  CDK6/cyclinD3 (Homo sapiens, UniProt Q00534)                    =        5.10
11  O=C1N([C@@H]2CCC[C@@H](O)C2)c2nc(Nc3c[nH]nc3O[C@@H]3COC[C@H]3F)ncc2C12CC2  CDK6/cyclinD3 (Homo sapiens, UniProt Q00534)                    ≤        5.00
12  O=C1N([C@@H]2CCC[C@@H](O)C2)c2nc(Nc3c[nH]nc3C(F)(F)F)ncc2C12CC2  CDK6/cyclinD3 (Homo sapiens, UniProt Q00534)                    ≤        5.00
13  O=C1N([C@@H]2CCC[C@@H](O)C2)c2nc(Nc3c[nH]nc3Cl)ncc2C12CC2  CDK6/cyclinD3 (Homo sapiens, UniProt Q00534)                    =        5.15
14  O=C1N([C@@H]2CCC[C@@H](O)C2)c2nc(Nc3c[nH]nc3-c3cnn4ccncc34)ncc2C12CC2  CDK6/cyclinD3 (Homo sapiens, UniProt Q00534)                    =        5.19
15  CSCc1n[nH]cc1Nc1ncc2c(n1)N([C@@H]1CCC[C@@H](O)C1)C(=O)C21CC1  CDK6/cyclinD3 (Homo sapiens, UniProt Q00534)                    =        5.12
16  O=C1N([C@@H]2CCC[C@@H](O)C2)c2nc(Nc3c[nH]nc3C#Cc3cccnc3)ncc2C12CC2  CDK6/cyclinD3 (Homo sapiens, UniProt Q00534)                    ≤        5.00
17  Cn1cc(-c2n[nH]cc2Nc2ncc3c(n2)N([C@@H]2CCC[C@@H](O)C2)C(=O)C32CC2)cn1  CDK6/cyclinD3 (Homo sapiens, UniProt Q00534)                    ≤        5.00
18  CN1C[C@@H](F)[C@H](Oc2n[nH]cc2Nc2ncc3c(n2)N([C@@H]2CCC[C@@H](O)C2)C(=O)C32CC2)C1  CDK6/cyclinD3 (Homo sapiens, UniProt Q00534)                    ≤        5.00
19  O=C1N([C@@H]2CCC[C@@H](O)C2)c2nc(Nc3c[nH]nc3OC[C@H]3COC[C@H]3F)ncc2C12CC2  CDK6/cyclinD3 (Homo sapiens, UniProt Q00534)                    ≤        5.00
20  O=C1N([C@@H]2CCC[C@@H](O)C2)c2nc(Nc3c[nH]nc3OC3CCOCC3)ncc2C12CC2  CDK6/cyclinD3 (Homo sapiens, UniProt Q00534)                    ≤        5.00
21  O=C1N([C@@H]2CCC[C@@H](O)C2)c2nc(Nc3c[nH]nc3-c3cccnc3)ncc2C12CC2  CDK6/cyclinD3 (Homo sapiens, UniProt Q00534)                    =        5.04
22  O=C1N([C@@H]2CCC[C@@H](O)C2)c2nc(Nc3c[nH]nc3C3CCCCO3)ncc2C12CC2 (stereo partly shown)  CDK6/cyclinD3 (Homo sapiens, UniProt Q00534)                    ≤        5.00
23  O=C1N([C@@H]2CCC[C@@H](O)C2)c2nc(Nc3c[nH]nc3OCC(F)(F)F)ncc2C12CC2  CDK6/cyclinD3 (Homo sapiens, UniProt Q00534)                    =        5.20
24  O=C1N([C@@H]2CCC[C@@H](O)C2)c2nc(Nc3c[nH]nc3OCCO)ncc2C12CC2  CDK6/cyclinD3 (Homo sapiens, UniProt Q00534)                    =        5.52
